Parameter: Ki. Scope: all listed entries.
biological target: FhCB1 (Fasciola hepatica); assay: Inhibition of recombinant FhCB1, fluorogenic substrate assay (Z-Phe-Arg-AMC); details: recombinant FhCB1 140 nM, 30 min pre-incubation, substrate Z-Phe-Arg-AMC at KM, optimum pH; ± SEM; read-out: inhibition constant Ki
Sequence (Q8I7B2 entry or part of it): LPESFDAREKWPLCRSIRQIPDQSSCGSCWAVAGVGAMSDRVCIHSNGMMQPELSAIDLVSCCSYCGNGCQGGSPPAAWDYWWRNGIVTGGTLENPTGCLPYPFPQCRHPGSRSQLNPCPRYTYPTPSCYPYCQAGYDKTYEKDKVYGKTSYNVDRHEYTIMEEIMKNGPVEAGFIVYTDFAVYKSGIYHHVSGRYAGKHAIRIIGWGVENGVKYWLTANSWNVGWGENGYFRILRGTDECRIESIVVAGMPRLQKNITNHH
Hi! Could you send only the number? It should be in µM, unit omitted.

Check out these entries, answers already filled in.
CCCNC(=O)[C@H]1O[C@@H]1C(=O)N[C@H](C(=O)N1CCC[C@H]1C(=O)OC)[C@@H](C)CC [Ca074ME]; 5.5
CC(C)C[C@H](NC(=O)[C@H](Cc1ccccc1)NC(=O)OCc1ccccc1)C(=O)C=O; 0.014
CC(C)C[C@H](NC(=O)OCc1ccccc1)C(=O)NNC(=O)NNC(=O)[C@H](CC(C)C)NC(=O)C(Cc1ccccc1)NC(=O)OC(C)(C)C (stereo partly shown); 0.466

Now consider the entry below.
# compound CCCNC(=O)[C@H]1O[C@@H]1C(=O)N[C@H](C(=O)N1CCC[C@H]1C(=O)O)[C@@H](C)CC ; its Ki = 7.32

###

Molecular target: FhCL3 (Fasciola hepatica, UniProt A0A879R2T5)
Sequence (A0A879R2T5 entry or part of it): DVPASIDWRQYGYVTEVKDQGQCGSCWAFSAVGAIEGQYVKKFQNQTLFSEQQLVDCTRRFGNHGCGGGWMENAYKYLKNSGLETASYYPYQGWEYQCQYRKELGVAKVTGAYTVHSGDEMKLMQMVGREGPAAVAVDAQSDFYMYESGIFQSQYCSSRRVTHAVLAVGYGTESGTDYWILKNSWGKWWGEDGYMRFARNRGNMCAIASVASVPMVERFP
Test: Inhibition of recombinant FhCL3, fluorogenic substrate assay (Z-Gly-Pro-Arg-AMC)
Format: biochemical
Settings: inhibition constant Ki, recombinant FhCL3 140 nM, 30 min pre-incubation, substrate Z-Gly-Pro-Arg-AMC at KM, optimum pH; ± SEM
Procedure: Recombinant peptidases were assayed for enzymatic activity using a fluorogenic substrate assay. The reactions were carried out in 0.1 M C-P buffer (pH 7.0) with 1 mM DTT in a final volume of 200 μL, in a black 96-well plate. Each well contained activated enzyme (140 nM) and 20 μM fluorogenic substrate, which was added to start the reaction. […] All data were plotted and analysed using MARS Data Analysis Software (BMG Labtech, UK) and GraphPad Prism version 5. […]
Parameter: Ki. Scope: all listed entries.
Hi! Could you send only the number? It should be in nM, unit omitted.

CCCNC(=O)[C@H]1O[C@@H]1C(=O)N[C@H](C(=O)N1CCC[C@H]1C(=O)OC)[C@@H](C)CC [Ca074ME]; 249
C[C@H](NC(=O)[C@H](Cc1ccccc1)NC(=O)OCc1ccccc1)C(=O)CF [Z-Phe-Ala-FMK]; 15

Now consider the entry below.
# compound CC(C)C[C@H](NC(=O)[C@H](Cc1ccccc1)NC(=O)OCc1ccccc1)C(=O)C=O [S] ; its Ki = 35
